assay procedure: MRT in Rhesus monkey at 3 mg/kg, iv by LC-MS/MS analysis
Assay type: ADME, organism-based, Macaca mulatta
study conditions: in vivo

chemical structure	result unit	MRT
O[C@H]1COC[C@H]1N1CC[C@@H](c2cc3nc(Nc4cnn([C@@H]5CC5(F)F)c4Cl)ncc3cc2Cl)[C@H](F)C1	h	5.2

====

assay procedure: MRT in Beagle dog at 1 mg/kg, iv by LC-MS/MS analysis
Type: ADME, organism-based, Canis lupus familiaris
study conditions: in vivo

chemical structure	MRT / h
O[C@H]1COC[C@H]1N1CC[C@@H](c2cc3nc(Nc4cnn([C@@H]5CC5(F)F)c4Cl)ncc3cc2Cl)[C@H](F)C1	24
